- target desc: T1, human gpNMB (Human Osteoactivin, His-tag, AcroBioSystems) (human, UniProt Q14956-2 23-486, limits assumed)
- T1 sequence (looked up): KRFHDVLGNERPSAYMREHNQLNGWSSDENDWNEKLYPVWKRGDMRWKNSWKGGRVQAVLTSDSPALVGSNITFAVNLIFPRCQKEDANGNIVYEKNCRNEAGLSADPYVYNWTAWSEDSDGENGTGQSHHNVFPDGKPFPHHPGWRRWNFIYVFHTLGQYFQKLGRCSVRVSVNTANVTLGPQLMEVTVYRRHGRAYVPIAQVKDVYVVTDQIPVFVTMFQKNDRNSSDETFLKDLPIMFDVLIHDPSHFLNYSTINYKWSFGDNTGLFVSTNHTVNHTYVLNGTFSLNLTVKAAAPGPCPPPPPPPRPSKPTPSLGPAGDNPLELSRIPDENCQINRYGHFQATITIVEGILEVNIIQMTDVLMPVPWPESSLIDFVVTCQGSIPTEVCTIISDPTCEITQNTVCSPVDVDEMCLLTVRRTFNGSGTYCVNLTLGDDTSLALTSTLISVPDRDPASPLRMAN
- assay notes: SPR Biacore 8K, antibody captured on protein A, gpNMB as analyte
Item-by-item account of koff
readout name: koff (s⁻¹)

hGPN18-5_H1L1 (antibody, V domains shown, humanized; also called hGPN18-5_VH1+VL1) VH: QVQLVQSGAEVKKPGASVKVSCKASGYTFTTYWMNWVRQAPGQGLEWIGAINPSNDYTEYNQKFKDRVTMTADTSTSTVYMELSSLRSEDTAVYYCGRSYSPDYWGQGTTVTVSS VL: DIQMTQSPSSLSASVGDRVTITCKASQNVDNHVAWFQQKPGKAPKALIYSASYRYSGVPSRFSGSGSGTDFTLTISSLQPEDFATYFCQQYKSYPFTFGGGTKLEIK | 0.00432
hGPN18-5_H3L2 (antibody, V domains shown, humanized; also called hGPN18-5 VH3+VL2) VH: QVQLVQSGAEVKKPGASVKVSCKASGYTFTTYWMNWVRQAPGQGLEWIGAINPSNDYTEYNQKFKDRAIMTADKSTSTVYMELSSLRSEDTAVYYCGRSYSPDYWGQGTTVTVSS VL: DIQMTQSPSSLSASVGDRVTITCKASQNVDNHVAWFQQKPGKAPKALIYSASYRYSGVPDRFSGSGSGTDFTLTISSLQPEDFATYFCQQYKSYPFTFGGGTKLEIK | 0.00436
